# Measurement target: human mGluR5 receptor (Homo sapiens (Human), UniProt P41594)
# Sequence (P41594 21-1212): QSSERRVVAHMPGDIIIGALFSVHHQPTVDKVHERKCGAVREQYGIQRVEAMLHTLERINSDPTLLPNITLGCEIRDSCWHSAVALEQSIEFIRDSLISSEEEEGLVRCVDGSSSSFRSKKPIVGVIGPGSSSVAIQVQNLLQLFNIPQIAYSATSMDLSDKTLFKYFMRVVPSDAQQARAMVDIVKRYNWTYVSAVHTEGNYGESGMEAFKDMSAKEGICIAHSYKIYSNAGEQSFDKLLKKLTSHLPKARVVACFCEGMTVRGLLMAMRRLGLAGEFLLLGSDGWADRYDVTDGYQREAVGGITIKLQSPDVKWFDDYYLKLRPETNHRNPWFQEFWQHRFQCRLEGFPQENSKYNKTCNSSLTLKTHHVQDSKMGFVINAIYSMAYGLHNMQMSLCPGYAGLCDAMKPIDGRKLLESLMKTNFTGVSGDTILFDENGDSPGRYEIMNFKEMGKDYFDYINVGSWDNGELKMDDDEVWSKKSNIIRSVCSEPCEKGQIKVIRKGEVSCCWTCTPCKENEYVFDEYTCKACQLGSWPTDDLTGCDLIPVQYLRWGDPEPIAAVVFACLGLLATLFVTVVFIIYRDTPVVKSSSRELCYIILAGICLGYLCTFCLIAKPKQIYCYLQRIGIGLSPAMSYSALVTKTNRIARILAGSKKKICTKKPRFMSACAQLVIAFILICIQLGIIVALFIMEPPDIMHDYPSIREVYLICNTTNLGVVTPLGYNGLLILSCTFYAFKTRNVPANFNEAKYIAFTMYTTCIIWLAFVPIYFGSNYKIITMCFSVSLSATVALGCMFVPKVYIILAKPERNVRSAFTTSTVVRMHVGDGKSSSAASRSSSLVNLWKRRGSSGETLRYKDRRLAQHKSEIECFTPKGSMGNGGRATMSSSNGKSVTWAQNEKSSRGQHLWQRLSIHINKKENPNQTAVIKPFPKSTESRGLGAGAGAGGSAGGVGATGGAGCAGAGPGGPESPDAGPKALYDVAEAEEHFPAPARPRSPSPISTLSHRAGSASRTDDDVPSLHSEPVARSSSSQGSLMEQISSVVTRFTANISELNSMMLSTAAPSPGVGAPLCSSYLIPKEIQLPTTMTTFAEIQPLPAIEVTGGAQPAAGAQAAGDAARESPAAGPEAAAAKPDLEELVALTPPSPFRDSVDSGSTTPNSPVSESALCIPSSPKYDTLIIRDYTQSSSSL
# Protocol: Calcium influx assay based on fluorescence (mGluR5 PAM activity)
# Conditions used: human mGluR5 receptor-overexpressed HEK293 cell line; L-glutamate EC20; Fluo-4, FLIPR
pEC50: −log10 of the molar value.

[
  {
    "Test smiles": "Cc1ccc(-c2cnc3nc(COc4ccc(F)cn4)cn3c2)c(C)c1",
    "pEC50": "6.00 to 6.30"
  },
  {
    "Test smiles": "COc1ccc(-c2cnc3nc(COc4ccc(F)cc4)cn3c2)cc1N",
    "pEC50": "6.00 to 6.30"
  },
  {
    "Test smiles": "Fc1ccnc(OCc2cn3cc(-c4ccc(F)cc4C(F)(F)F)cnc3n2)c1",
    "pEC50": "6.30 to 7.00"
  },
  {
    "Test smiles": "NC(=O)OCc1cc(F)ccc1-c1cnc2nc(COc3ccc(F)cc3)cn2c1",
    "pEC50": "6.30 to 7.00"
  }
]
